In this section we review reported IFNγ secretion, CD8 T cells, at 0 µM values for a set of binders.
- TESTED_TARGET: T1, IL10Rα/IL2Rγ receptor (human) (UniProt Q13651)
- T1 sequence (looked up) 1: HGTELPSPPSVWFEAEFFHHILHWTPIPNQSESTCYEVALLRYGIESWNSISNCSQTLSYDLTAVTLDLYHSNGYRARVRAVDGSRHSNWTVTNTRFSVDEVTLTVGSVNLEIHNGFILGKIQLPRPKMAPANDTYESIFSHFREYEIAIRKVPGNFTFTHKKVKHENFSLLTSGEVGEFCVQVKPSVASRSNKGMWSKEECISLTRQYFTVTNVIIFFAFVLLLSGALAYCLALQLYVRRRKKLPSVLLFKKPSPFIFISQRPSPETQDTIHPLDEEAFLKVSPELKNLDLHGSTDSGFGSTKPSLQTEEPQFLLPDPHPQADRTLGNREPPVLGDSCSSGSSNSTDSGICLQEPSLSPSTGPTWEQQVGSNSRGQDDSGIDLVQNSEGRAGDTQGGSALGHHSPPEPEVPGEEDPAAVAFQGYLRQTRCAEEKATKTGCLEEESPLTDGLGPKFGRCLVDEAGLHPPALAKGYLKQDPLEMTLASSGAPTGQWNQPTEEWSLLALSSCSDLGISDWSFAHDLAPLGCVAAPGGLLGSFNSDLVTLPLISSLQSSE
- T1 sequence (looked up) 2: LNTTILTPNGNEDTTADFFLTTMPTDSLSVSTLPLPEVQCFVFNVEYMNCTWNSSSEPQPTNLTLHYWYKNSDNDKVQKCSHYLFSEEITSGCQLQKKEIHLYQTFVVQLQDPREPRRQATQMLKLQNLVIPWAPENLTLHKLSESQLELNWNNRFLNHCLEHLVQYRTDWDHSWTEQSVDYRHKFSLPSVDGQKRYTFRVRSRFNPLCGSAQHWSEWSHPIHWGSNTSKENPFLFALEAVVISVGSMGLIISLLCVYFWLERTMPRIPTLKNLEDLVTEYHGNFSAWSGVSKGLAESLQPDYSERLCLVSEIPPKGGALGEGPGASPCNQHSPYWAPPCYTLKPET
- EXPERIMENTAL_PROTOCOL: cell-based or functional assay
Report only the number, with the unit pg/mL understood.

BINDER: hIL10Ra_VHH14 - hIL2Rg_VHH19, linker …, tag his (bispecific antibody, not shown: small tags and cut ends) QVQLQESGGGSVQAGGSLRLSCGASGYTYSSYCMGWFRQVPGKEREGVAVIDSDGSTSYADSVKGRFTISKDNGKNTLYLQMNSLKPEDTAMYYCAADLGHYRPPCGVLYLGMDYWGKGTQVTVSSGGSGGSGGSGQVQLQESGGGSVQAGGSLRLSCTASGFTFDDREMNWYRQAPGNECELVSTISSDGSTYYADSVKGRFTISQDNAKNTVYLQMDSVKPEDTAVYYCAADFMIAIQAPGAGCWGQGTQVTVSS
IFNγ secretion, CD8 T cells, at 0 µM, pg/mL: 122000
--
BINDER: hIL10Ra_VHH14 - hIL2Rg_VHH19, linker GGGSGGGS, tag his (bispecific antibody, not shown: small tags and cut ends) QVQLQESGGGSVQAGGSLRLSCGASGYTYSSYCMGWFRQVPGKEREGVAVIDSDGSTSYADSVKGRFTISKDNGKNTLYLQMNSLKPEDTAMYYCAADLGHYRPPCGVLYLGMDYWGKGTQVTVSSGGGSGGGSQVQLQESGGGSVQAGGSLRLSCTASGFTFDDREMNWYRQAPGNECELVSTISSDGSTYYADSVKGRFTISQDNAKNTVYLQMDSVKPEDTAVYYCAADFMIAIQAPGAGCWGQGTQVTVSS
IFNγ secretion, CD8 T cells, at 0 µM, pg/mL: 122000

API: the following record is the query input.
[ask] Which measured IFNγ secretion, CD8 T cells, at 0 µM value corresponds to hIL10Ra_VHH14 - hIL2Rg_VHH19, linker GGGS, tag his (bispecific antibody, not shown: small tags and cut ends) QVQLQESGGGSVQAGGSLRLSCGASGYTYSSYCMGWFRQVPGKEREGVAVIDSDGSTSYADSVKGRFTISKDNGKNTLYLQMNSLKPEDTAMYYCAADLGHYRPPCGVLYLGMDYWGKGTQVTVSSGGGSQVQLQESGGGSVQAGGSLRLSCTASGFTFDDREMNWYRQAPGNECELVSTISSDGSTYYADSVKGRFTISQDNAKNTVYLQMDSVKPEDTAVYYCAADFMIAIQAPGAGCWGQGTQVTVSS ?
[reply] 122000
